Test system: HCT116 cells
Assay: Apoptosis induction, Annexin V / 7-AAD flow cytometry
Format: cell-based, human
Conditions: human, 48 h
assay_metric: Live (viable cells) (%)
API: value field is a number in %; no unit string.

Record `COc1ccc(N(C)c2nc(C)nc3c2CCCC3)cc1` . Reported Live (viable cells): 69.45

response.value for `COc1ccc(N(C)c2nc(Cl)nc3c2CCCC3)cc1` (field: Live (viable cells)) = 52.58

`COc1ccc2c(c1)CCCN2c1nc(N)nc2c1CCCC2` yielded Live (viable cells) of 30.81

Entry under test: `COc1ccc(N(C)c2nc(N)nc3c2CCCC3)cc1` . Its Live (viable cells) was 43.99

---

System: A549 cell line
Experiment: MTT assay of nanocontainer formulations, A549
Format: cell-based
Conditions: Homo sapiens, 48 h treatment, 2c concentration in formulations = 0.1 × COO− concentration
assay_metric: IC50 (µM)
// note: answer is a bare numeric in µM

# IC50 (compound: `COc1ccc(N(C)c2nc(C)nc3c2CCCC3)cc1` ) is 0.6

---

Please go through the items and note down their melting point.

Just so you know, measured melting point for COc1ccc(N(C)c2nc(C)nc3c2CCCCC3)cc1 [Compound 2k] came out at 92 to 93 °C

The reported melting point of the molecule Cc1ccc(N(C)c2nc(N)nc3c2CCCC3)cc1 [Compound 2h] was 135 to 136 °C

Record Cc1nc2c(c(N3CCCc4ccccc43)n1)CCCC2 [Compound 2d] . Reported melting point: 118 to 119 °C

The value of melting point measured for the molecule CN(c1ccccc1)c1nc(N)nc2c1CCCC2 [Compound 2g] turned out to be 128 to 129 °C

melting point reported for this molecule Cc1ccc(N(C)c2nc(C)nc3c2CCCC3)cc1 [Compound 2b] : 91 to 92 °C

---

Test system: MCF7′, A549, VA13, HEK293T cell lines
Test: MTT cytotoxicity, SAR statements over the cell line panel
Format: cell-based, human
Settings: MTT, 64 h
assay_metric: cytotoxicity, in words

COc1ccc2c(c1)CCCN2c1nc2c(c(N3CCCc4cc(OC)ccc43)n1)CCCC2 [Compound 2p]
moderately cytotoxic
COc1ccc(N(C)c2nc3c(c(N(C)c4ccc(OC)cc4)n2)CCCC3)cc1 [Compound 2n]
moderately cytotoxic
COc1ccc2c(c1)CCCN2c1nc2c(c(OC(C)C)n1)CCCC2 [Compound 2r]
moderately cytotoxic

---

System: immortalized lung fibroblast cell line VA13 (WI38 subline 2RA)
Experiment: MTT cytotoxicity assay, VA13
Format: cell-based
Details: Homo sapiens, VA-13; 64 h treatment, MTT; read-out: IC50, nM VA13
Threshold-based label: IC50 under 1000 nM gives true, IC50 not under 1000 nM gives false.

Please state whether IC50 is below 1000 nM for Cc1ccc(N(C)c2nc(C)nc3c2CCCC3)cc1 [Compound 2b] true

Given COc1ccc(N(C)c2nc(C)nc3c2CCCCC3)cc1 [Compound 2k] , is recorded IC50 strictly lower than 1000 nM? true

Please let me know if Cc1nc2c(c(N3CCCc4ccccc43)n1)CCCC2 [Compound 2d] shows IC50 below 1000 nM. false

IC50 strictly < 1000 nM for this compound? COc1ccc(N(C)c2nc(N)nc3c2CCCC3)cc1 [Compound 2i] true

API: query returns whether the compound falls strictly under 1000 nM in IC50. Query: Cc1nc2c(c(N(C)c3ccccc3)n1)CCCC2 [Compound 2a] false

Find out if reported IC50 for COc1ccc(N(C)c2nc(Cl)nc3c2CCCC3)cc1 [Compound 2m] is less than 1000 nM true

Does the reported IC50 of the following compound sit strictly below 1000 nM? COc1ccc2c(c1)CCCN2c1nc(N)nc2c1CCCC2 [Compound 2j] true

Please indicate whether the reported IC50 of COc1ccc(N(C)c2nc3c(c(N(C)c4ccc(OC)cc4)n2)CCCC3)cc1 [Compound 2n] is strictly below 1000 nM. false

Record Cc1ccc(N(C)c2nc(N)nc3c2CCCC3)cc1 [Compound 2h] : is its IC50 strictly below 1000 nM? true

Is IC50 of COc1ccc2c(c1)CCCN2c1nc(O)nc2c1CCCC2 [Compound 2o] strictly below 1000 nM? false

Please let me know if COc1ccc2c(c1)CCCN2c1nc(OC(C)C)nc2c1CCCC2 [Compound 2q] shows IC50 below 1000 nM. true

Quick check: IC50 of COc1ccc2c(c1)CCCN2c1nc2c(c(OC(C)C)n1)CCCC2 [Compound 2r] under 1000 nM? false

Say whether its IC50 is strictly beneath 1000 nM. Entry: Cc1nc2c(c(N3CCCc4ccc([N+](=O)[O-])cc43)n1)CCCC2 [Compound 2f] false

API: query returns whether the compound falls strictly under 1000 nM in IC50. Query: CN(c1ccccc1)c1nc(N)nc2c1CCCC2 [Compound 2g] false

Hello, I'm reviewing records and need to know if IC50 of COc1ccc2c(c1)CCCN2c1nc2c(c(N3CCCc4cc(OC)ccc43)n1)CCCC2 [Compound 2p] is below 1000 nM. Could you check? true

Field: below-cutoff. Rule: recorded IC50 strictly less than 1000 nM. Subject: COc1ccc2c(c1)CCCN2c1nc(C)nc2c1CCCC2 [Compound 2e] true

IC50 under 1000 nM? Item: COc1ccc2c(c1)CCCN2c1nc(C)nc2c1CCCCC2 [Compound 2l] true

Lab log: compare recorded IC50 with 1000 nM; is it strictly lower for COc1ccc(N(C)c2nc(C)nc3c2CCCC3)cc1 [Compound 2c] ? true
